test system: HCV 1b-377-neo replicon cells; experiment: HCV Replicon assay, HCV 1b-377-neo replicon cells; assay type: cell-based, HCV 1b genotype; settings: Hepatitis C virus, Table 2, read-out: Range (EC50 against HCV 1b)
pEC50: −log10 of the molar value.
assay.metric: pEC50

>  <compound>
COC(=O)N[C@@H](C(=O)N[C@@H](C)c1ncc(-c2ccc(-c3ccc(-c4cnc([C@H](C)NC(=O)[C@H](NC(=O)OC)c5ccccc5)[nH]4)cn3)cc2)[nH]1)c1ccccc1 [Example 152j-23]

>  <assay.metric>
pEC50

>  <experimental.result>
9.00 to 12.00

$$$$
>  <compound>
CN(C)[C@@H](C(=O)N1CCC[C@H]1c1ncc(-c2ccc(-c3ccc(-c4cnc([C@@H]5CCCN5C(=O)[C@@H](c5ccccc5)N(C)C)[nH]4)cn3)cc2)[nH]1)c1ccccc1

>  <assay.metric>
pEC50

>  <experimental.result>
9.00 to 12.00

$$$$
>  <compound>
COC(=O)N[C@@H](C(=O)N1CCC[C@H]1c1ncc(-c2ccc(-c3ccc(-c4cnc([C@@H]5CCCN5C(=O)C5CCN(C)CC5)[nH]4)cn3)cc2)[nH]1)c1ccccc1

>  <assay.metric>
pEC50

>  <experimental.result>
7.00 to 9.00

$$$$
>  <compound>
C[C@@H](c1ncc(-c2ccc(-c3ncc(-c4cnc([C@@H]5CCCN5C(=O)[C@@H](c5ccccc5)N(C)C)[nH]4)cn3)cc2)[nH]1)N(C)C(=O)[C@@H](c1ccccc1)N(C)C [Example 152j-20]

>  <assay.metric>
pEC50

>  <experimental.result>
7.00 to 9.00

$$$$
>  <compound>
COC(=O)N[C@@H](C(=O)N1CCC[C@H]1c1ncc(-c2ccc(-c3ccc(-c4cnc([C@@H]5CCCN5C(=O)Cc5cccnc5)[nH]4)cn3)cc2)[nH]1)c1ccccc1

>  <assay.metric>
pEC50

>  <experimental.result>
9.00 to 12.00

$$$$
>  <compound>
COC(=O)N[C@H](C(=O)N1CCC[C@H]1c1ncc(-c2cnc(-c3ccc(-c4[nH]c([C@@H]5CCCN5C(=O)[C@@H](NC(=O)OC)C5CC5)nc4C(F)(F)F)cc3)nc2)[nH]1)C1CC1

>  <assay.metric>
pEC50

>  <experimental.result>
9.00 to 12.00

$$$$

// moving on: another record for pEC50
Query: Given the entry COC(=O)N[C@@H](C(=O)N[C@@H](C)c1ncc(-c2ccc(-c3cnc(-c4cnc([C@@H]5CCCN5C(=O)[C@H](NC(=O)OC)c5ccccc5)[nH]4)cn3)cc2)[nH]1)c1ccccc1 [Example 152j-28] , report its measured pEC50.
Result: 9.00 to 12.00

* * *

test system: HCV 1b-377-neo replicon cells; test: HCV Replicon assay, HCV 1b-377-neo replicon cells; format: cell-based, HCV 1b genotype; conditions: Hepatitis C virus, Table 2, read-out: Range (EC50 against HCV 1b)
pEC50: −log10 of the molar value.
Measured pEC50 values are reported for all entries that follow.

>  <compound>
COC(=O)N[C@@H](C(=O)N1CCC[C@H]1c1ncc(-c2ccc(-c3ncc(-c4cnc([C@@H]5CCCN5C(=O)[C@@H](c5ccccc5)N5CCCCC5)[nH]4)cn3)cc2)[nH]1)c1ccccc1 [Example 152l-3]

>  <pEC50>
9.00 to 12.00

$$$$
>  <compound>
CC(=O)N[C@@H](C(=O)N1CCC[C@H]1c1ncc(-c2ccc(-c3ccc(-c4cnc([C@@H]5CCCN5C(=O)[C@H](NC(C)=O)c5ccccc5)[nH]4)cn3)cc2)[nH]1)c1ccccc1

>  <pEC50>
9.00 to 12.00

$$$$
>  <compound>
CN(C)[C@@H](C(=O)N1CCC[C@H]1c1ncc(-c2ccc(-c3ccc(-c4cnc([C@@H]5CCCN5C(=O)[C@@H](c5ccccc5)N(C)C)[nH]4)nc3)cc2)[nH]1)c1ccccc1

>  <pEC50>
9.00 to 12.00

$$$$
>  <compound>
COC(=O)N[C@H](C(=O)N1[C@H](c2ncc(-c3ccc(-c4ccc(-c5cnc([C@@H]6C[C@@H]7C[C@@H]7N6C(=O)[C@@H](NC(=O)OC)C(C)C)[nH]5)cc4)cc3)[nH]2)C[C@@H]2C[C@@H]21)C(C)C

>  <pEC50>
7.00 to 9.00

$$$$
>  <compound>
C[C@H](NC(=O)[C@@H](c1ccccc1)N(C)C)c1ncc(-c2cnc(-c3ccc(-c4cnc([C@@H]5CCCN5C(=O)[C@@H](c5ccccc5)N(C)C)[nH]4)cc3)cn2)[nH]1 [Example 152j-18]

>  <pEC50>
9.00 to 12.00

$$$$
>  <compound>
COC(=O)N[C@@H](C(=O)N(C)[C@@H](C)c1ncc(-c2ccc(-c3ccc(-c4cnc([C@@H]5CCCN5C(=O)[C@@H](c5ccccc5)N5CCCCC5)[nH]4)cc3)cc2)[nH]1)c1ccccc1

>  <pEC50>
9.00 to 12.00

$$$$
>  <compound>
CO[C@@H](C(=O)N1CCC[C@H]1c1ncc(-c2ccc(-c3ccc(-c4cnc([C@@H]5CCCN5C(=O)[C@H](OC)c5ccccc5)[nH]4)cn3)cc2)[nH]1)c1ccccc1

>  <pEC50>
9.00 to 12.00

$$$$
>  <compound>
CN(C)[C@@H](C(=O)N1CCC[C@H]1c1ncc(-c2ccc(-c3ncc(-c4cnc([C@@H]5CCCN5C(=O)[C@@H](c5ccccc5)N(C)C)[nH]4)cn3)cc2)[nH]1)c1ccccc1 [Example 152j-1]

>  <pEC50>
7.00 to 9.00

$$$$

Query: Given the entry COC(=O)N[C@@H](C(=O)N1CCC[C@H]1c1ncc(-c2ccc(-c3ncc(-c4cnc([C@@H]5CCCN5C(=O)[C@H](NC(=O)OC)c5ccccc5)[nH]4)cn3)cc2)[nH]1)c1ccccc1 [Example 152j-2] , report its measured pEC50.
Result: 9.00 to 12.00

Query: Also need `COC(=O)N[C@H](C(=O)N1CCC[C@H]1c1nc(-c2cnc(-c3ccc(-c4cnc([C@@H]5CCCN5C(=O)[C@@H](NC(=O)OC)C5CC5)[nH]4)cc3)nc2)c[nH]1)C1CC1` , thanks.
Result: 9.00 to 12.00

Query: Also need `O=C([C@H](O)c1ccccc1)N1CCC[C@H]1c1ncc(-c2ccc(-c3ccc(-c4cnc([C@@H]5CCCN5C(=O)[C@H](O)c5ccccc5)[nH]4)cn3)cc2)[nH]1` , thanks.
Result: 7.00 to 9.00

Query: Also need COC(=O)N[C@@H](C(=O)N[C@@H](C)c1ncc(-c2ccc(-c3ccc(-c4cnc([C@@H]5CCCN5C(=O)[C@H](NC(=O)OC)c5ccccc5)[nH]4)cc3)nc2)[nH]1)c1ccccc1 [Example 152j-22] , thanks.
Result: 9.00 to 12.00

Query: Also need `COC(=O)N[C@H](C(=O)N1CCC[C@H]1c1nc(-c2cnc(-c3ccc(-c4cnc([C@@H]5CCCN5C(=O)[C@@H](NC(=O)OC)[C@@H](C)OC)[nH]4)c(F)c3)nc2)c[nH]1)[C@@H](C)OC` , thanks.
Result: 9.00 to 12.00

Query: Also need C[C@H](NC(=O)[C@@H](c1ccccc1)N(C)C)c1ncc(-c2cnc(-c3ccc(-c4cnc([C@@H]5CCCN5C(=O)[C@@H](c5ccccc5)N(C)C)[nH]4)cc3)nc2)[nH]1 [Example 152j-16] , thanks.
Result: 9.00 to 12.00

Query: Also need `COC(=O)N[C@@H](C(=O)N1CCC[C@H]1c1ncc(-c2ccc(-c3ccc(-c4cnc([C@@H]5CCCN5C(=O)[C@@H](c5ccccc5)N(C)C)[nH]4)cn3)cc2)[nH]1)c1ccccc1` , thanks.
Result: 9.00 to 12.00

Query: Also need `CCN(CC)[C@@H](C(=O)N1CCC[C@H]1c1ncc(-c2ccc(-c3ncc(-c4c[nH]c([C@@H]5CCCN5C(=O)[C@@H](NC(=O)OC)C(C)C)n4)cn3)cc2)[nH]1)c1ccccc1` , thanks.
Result: 9.00 to 12.00

Query: Also need COC(=O)N[C@@H](C(=O)N[C@@H](C)c1ncc(-c2ccc(-c3ncc(-c4cnc([C@@H]5CCCN5C(=O)[C@@H](c5ccccc5)N5CCCCC5)[nH]4)cn3)cc2)[nH]1)c1ccccc1 [Example 152l-2] , thanks.
Result: 9.00 to 12.00

Query: Also need C[C@H](NC(=O)[C@@H](c1ccccc1)N(C)C)c1ncc(-c2ccc(-c3ccc(-c4cnc([C@@H]5CCCN5C(=O)[C@@H](c5ccccc5)N(C)C)[nH]4)cn3)cc2)[nH]1 [Example 152j-11] , thanks.
Result: 9.00 to 12.00

Query: Also need `COC(=O)N[C@H](C(=O)N1CCC[C@H]1c1ncc(-c2ccc(-c3ccc(-c4cnc([C@@H]5CCCN5C(=O)[C@@H](Nc5noc(N)n5)C(C)C)[nH]4)cc3)cc2)[nH]1)C(C)C` , thanks.
Result: 9.00 to 12.00
